# assayText: Color development of photochromic cured product (color density, maximum absorption wavelength), xenon lamp 120 seconds
# Format: physicochemical
# assayConditions: maximum absorption wavelength; monomers 3PG:45,4G:45,GMA:9,MSD:1
readoutLabel: max (nm)
The figure you give is taken to be in nm; do not add the unit.

Ask: Return reported max; argument: CC1=C2C(=O)N(c3ccccc3C#N)C(=O)C2C2(c3sc(-c4ccccc4)cc31)C1CC3CC(C1)CC2C3 (stereo not drawn) [Fulgimide compound B, reference compound]
Result: 570

Ask: Return reported max; argument: CC1=C2C(=O)N(c3cccc(C(F)(F)F)c3)C(=O)C2C2(c3sc(-c4ccccc4)cc31)C1CC3CC(C1)CC2C3 (stereo not drawn)
Result: 566

Ask: Return reported max; argument: COc1ccc(-c2cc3c(s2)C2(C4CC5CC(C4)CC2C5)C2C(=O)N(CC#N)C(=O)C2=C3C)cc1 (stereo not drawn) [Fulgimide compound F, reference compound]
Result: 578

Ask: Return reported max; argument: CC1=C2C(=O)N(CC#N)C(=O)C2C2(c3sc(-c4ccccc4)cc31)C1CC3CC(C1)CC2C3 (stereo not drawn) [Fulgimide compound D, reference compound]
Result: 568

Ask: Return reported max; argument: CC1=C2C(=O)N(c3cccc(C(=O)Oc4ccccc4)c3)C(=O)C2C2(c3sccc31)C1CC3CC(C1)CC2C3 (stereo not drawn)
Result: 562

Ask: Return reported max; argument: CC(=O)c1cccc(N2C(=O)C3=C(C)c4cc(C)oc4C4(C5CCC4CC5)C3C2=O)c1 (stereo not drawn)
Result: 525

Ask: Return reported max; argument: COc1ccc(-c2cc3c(s2)C2(C4CC5CC(C4)CC2C5)C2C(=O)N(c4cccc(C#N)c4)C(=O)C2=C3C)cc1 (stereo not drawn)
Result: 582

Ask: Return reported max; argument: CC1=C2C(=O)N(c3cccc(C#N)c3)C(=O)C2C2(c3sc(-c4ccccc4)cc31)C1CC3CC(C1)CC2C3 (stereo not drawn)
Result: 570

Ask: Return reported max; argument: CC1=C2C(=O)N(c3cccc([N+](=O)[O-])c3)C(=O)C2C2(c3sccc31)C1CC3CC(C1)CC2C3 (stereo not drawn)
Result: 572

Ask: Return reported max; argument: COC(=O)c1cccc(N2C(=O)C3=C(C)c4ccsc4C4(C5CC6CC(C5)CC4C6)C3C2=O)c1 (stereo not drawn)
Result: 550

Ask: Return reported max; argument: CC1=C2C(=O)N(c3ccc(C#N)cc3)C(=O)C2C2(c3sc(-c4ccccc4)cc31)C1CC3CC(C1)CC2C3 (stereo not drawn) [Fulgimide compound C, reference compound]
Result: 570

Ask: Return reported max; argument: CC1=C2C(=O)N(c3cccc(C(=O)c4ccccc4)c3)C(=O)C2C2(c3sccc31)C1CC3CC(C1)CC2C3 (stereo not drawn)
Result: 563

Ask: Return reported max; argument: CC1=C2C(=O)N(C#N)C(=O)C2C2(c3sc(-c4ccccc4)cc31)C1CC3CC(C1)CC2C3 (stereo not drawn) [Fulgimide compound E, reference compound]
Result: 620

Ask: Return reported max; argument: CC1=C2C(=O)N(c3cccc(S(=O)O)c3)C(=O)C2C2(c3sccc31)C1CC3CC(C1)CC2C3 (stereo not drawn)
Result: 567

Ask: Return reported max; argument: CC1=C2C(=O)N(c3cccc(F)c3)C(=O)C2C2(c3sc(C)cc31)C1CC3CC(C1)CC2C3 (stereo not drawn)
Result: 574

Ask: Return reported max; argument: N#Cc1cccc(N2C(=O)C3=C(C4CC4)c4ccsc4C4(C5CC6CC(C5)CC4C6)C3C2=O)c1 (stereo not drawn)
Result: 560

Ask: Return reported max; argument: CC1=C2C(=O)N(c3cccc(S(=O)(=O)c4ccccc4)c3)C(=O)C2C2(c3sccc31)C1CC3CC(C1)CC2C3 (stereo not drawn)
Result: 564

Ask: Return reported max; argument: CC1=C2C(=O)N(c3cc(C#N)cc(C#N)c3)C(=O)C2C2(c3sc(-c4ccccc4)cc31)C1CC3CC(C1)CC2C3 (stereo not drawn)
Result: 582
